# System: B16
# Protocol description: In vitro antitumor activity against murine melanoma cells (B16 melanoma cells)
# Type: functional
# Measurement conditions: Mus musculus, read-out: ID50 (the source's name)
Reported IC50 values are given for each entry in this list.
Metric name: IC50 (µg/mL)

{"columns": ["Compound", "Metric name", "Recorded measurement"],
 "data": [
  ["Cc1c2oc3c(C)c(OCC4CN4)cc(C(=O)N[C@@H]4C(=O)N[C@H](C(C)C)C(=O)N5CCC[C@H]5C(=O)N(C)CC(=O)N(C)[C@@H](C(C)C)C(=O)O[C@@H]4C)c3nc-2c(C(=O)N[C@@H]2C(=O)N[C@H](C(C)C)C(=O)N3CCC[C@H]3C(=O)N(C)CC(=O)N(C)[C@@H](C(C)C)C(=O)O[C@@H]2C)c(N)c1=O (some centres not stated)", "IC50", 0.11],
  ["Cc1c2oc3c(C)c(OCCN4CC4)cc(C(=O)N[C@@H]4C(=O)N[C@H](C(C)C)C(=O)N5CCC[C@H]5C(=O)N(C)CC(=O)N(C)[C@@H](C(C)C)C(=O)O[C@@H]4C)c3nc-2c(C(=O)N[C@@H]2C(=O)N[C@H](C(C)C)C(=O)N3CCC[C@H]3C(=O)N(C)CC(=O)N(C)[C@@H](C(C)C)C(=O)O[C@@H]2C)c(N)c1=O", "IC50", 0.14]
]}
